Data origin, for the record: patent US4826817A

# protocolText: Plasma and brain levels of L-tyrosine after intraperitoneal injection to rats
# assayContext: rat, brain, ip, 1620 umol/kg
quantity: concentration at 0.5 h (ng/g)

N[C@@H](Cc1ccc(O)cc1)C(=O)O    20200

* * *

# protocolText: Plasma and brain levels of L-tyrosine after intraperitoneal injection to rats
# assayContext: rat, plasma, ip, 1620 umol/kg
quantity: concentration at 0.5 h (ng/g)

N[C@@H](Cc1ccc(O)cc1)C(=O)O [L-tyrosine]    16900

* * *

# protocolText: Plasma and brain levels of L-tyrosine after intraperitoneal injection to rats
# assayContext: rat, plasma, ip, 1620 umol/kg
quantity: concentration at 2 h (ng/g)

N[C@@H](Cc1ccc(O)cc1)C(=O)O    12700
